- System: CCRIS mutagenicity, Ames/micronucleus/aberration tests
- Assay Overview: CCRIS mutagenicity studies
- Condition: Test System: AMES SALMONELLA TYPHIMURIUM; Strain/Indicator: TA100; Metabolic Activation: RAT, LIVER, S-9, AROCLOR 1254; Method: STANDARD PLATE
Active and inactive are the calls of the source. How the calls were made is not given here.
The categories you may choose from are active, inactive

Name the outcome recorded for COc1cc(N)c([N+](=O)[O-])cc1N in the assay.
active

----------
- Test system: CCRIS mutagenicity, Ames/micronucleus/aberration tests
- Assay Overview: CCRIS mutagenicity studies
- Condition: Test System: AMES SALMONELLA TYPHIMURIUM; Strain/Indicator: TA1535; Metabolic Activation: HAMSTER, LIVER, S-9, AROCLOR 1254 (10%); Method: PREINCUBATION
Active and inactive are the calls of the source. No rule for the calls is given here.
Measured Attribute: mutagenic call

Worked cases, mutagenic call given:
[[record]]
molecule = "CN(C)c1ccc(N=NS(=O)(=O)O)cc1"
measured_attribute = "mutagenic call"
val = "active; positive"

[[record]]
molecule = "c1ccc(Nc2ccccc2)cc1"
measured_attribute = "mutagenic call"
val = "inactive; negative"

[[record]]
molecule = "c1ccc(Nc2ccc3ccccc3c2)cc1"
measured_attribute = "mutagenic call"
val = "inactive; negative"

[[record]]
molecule = "CCCCCN(CCCCC)CCCCC"
measured_attribute = "mutagenic call"
val = "inactive; negative"

[[record]]
molecule = "Nc1cc([N+](=O)[O-])cc(Cl)c1O"
measured_attribute = "mutagenic call"
val = "inactive; negative"


Tell me the measured mutagenic call of Cc1ccc(OCC2CO2)cc1 (stereo unspecified) , please.
active; positive

Bench note: what mutagenic call did O=C1OC(=O)c2cc([N+](=O)[O-])ccc21 show?
active; positive

----------
- System: CCRIS mutagenicity, Ames/micronucleus/aberration tests
- Assay Overview: CCRIS mutagenicity studies
- Condition: Test System: AMES SALMONELLA TYPHIMURIUM; Strain/Indicator: TA100; Metabolic Activation: RAT, LIVER, S-9, AROCLOR 1254; Method: PREINCUBATION
Calls of active or inactive are those of the source. The rule behind the calls is not given here.
The categories you may choose from are active, inactive

[[record]]
molecule = "N/C(=N\\O)c1ccccc1"
study_target = "CCRIS mutagenicity, Ames/micronucleus/aberration tests"
classification = "inactive"

[[record]]
molecule = "CNc1ccc(N(CCO)CCO)cc1[N+](=O)[O-]"
study_target = "CCRIS mutagenicity, Ames/micronucleus/aberration tests"
classification = "active"

[[record]]
molecule = "OCCNCCO"
study_target = "CCRIS mutagenicity, Ames/micronucleus/aberration tests"
classification = "inactive"


Assay outcome for Clc1c(Cl)c(Cl)c2ccccc2c1Cl : what was it?
inactive

# lookup: test call for O=C/C=C/c1ccco1
inactive

Check the results log: what was the call for O=Cc1ccc([N+](=O)[O-])o1 ?
active

For c1ccc2occc2c1 , which call appears in the assay record?
inactive

Per the assay record, what outcome was assigned to Cc1cc2ncccc2c2nc(N)n(C)c12 ?
active

Hi, do you know how CC(=O)NC[C@@H](O)COc1cccc2ccccc12 came out in this test?
inactive

Would you mind telling me which call this test gave Nc1nc(=O)n([C@H]2C[C@H](O)[C@@H](CO)O2)cc1CCCl ?
inactive

// outcome(item) with item = O=C1CCC(=O)O1
inactive

Hey, what did the test say about COc1cc(OC)c2c(c1)O[C@@H]1OC=C[C@H]21 ?
active

Tell me the assay call for Oc1c(Cl)c(Cl)c(Cl)c(Cl)c1Cl please.
inactive

Tell me the assay call for Clc1cc(Cl)c(Cl)c(Cl)c1 please.
inactive

Kindly provide the recorded test outcome for the following molecule: CN(C)c1ccccc1
inactive

What call does the record list for Oc1cccc2cc3c4ccccc4c4ccccc4c3cc12 ?
active

Dear colleague, could you share the recorded outcome for Oc1ccccc1-c1ccccc1 when you have a moment?
inactive

Short answer needed: outcome of this test for Brc1ccccc1-c1ccccc1 ?
inactive

Answer briefly: the call reported for Brc1cccc(-c2ccccc2)c1 in this assay.
inactive
